- System: phenylquinone writhing in mice
- assay_method_text: Phenylquinone writhing test
- Assay type: in vivo, female white mice
- condition_notes: Mus musculus, 0.5 h; fasted female mice, oral; phenylquinone i.p. 24 minutes later; observed for 10 minutes from 30 minutes after dosing; read-out: Analgesic Phenylquinone Writhing ED50
reported_endpoint: ED50

Use the examples below as a reference point.
{"molecule": "Cc1c(C(N)(C(F)(F)F)C(F)(F)F)[nH]c(-c2ccc(F)cc2)c1-c1ccc(F)cc1 [Example 8]", "target": "phenylquinone writhing in mice", "ED50": "> 108 mg/kg"}
{"molecule": "Cc1ccc(-c2cc(C(N)(C(F)(F)F)C(F)(F)F)[nH]c2-c2ccc(C)cc2)cc1 [Example 7]", "target": "phenylquinone writhing in mice", "ED50": "> 108 mg/kg"}
{"molecule": "NC(c1cc(-c2ccc(F)cc2)c(-c2ccc(F)cc2)n1Cc1ccccc1)(C(F)(F)F)C(F)(F)F [Example 13]", "target": "phenylquinone writhing in mice", "ED50": "> 108 mg/kg"}
{"molecule": "CNC(c1cc(-c2ccc(F)cc2)c(-c2ccc(F)cc2)n1C)(C(F)(F)F)C(F)(F)F [Example 14]", "target": "phenylquinone writhing in mice", "ED50": "> 108 mg/kg"}

Query: Recall the reported ED50 of COc1ccc(-c2cc(C(N)(C(F)(F)F)C(F)(F)F)[nH]c2-c2ccc(OC)cc2)cc1 [Example 4] on phenylquinone writhing in mice and write it down.
Response: 45 mg/kg

Query: Give ED50; test system phenylquinone writhing in mice; molecule NC(c1cc(-c2ccc(Cl)cc2)c(-c2ccc(Cl)cc2)[nH]1)(C(F)(F)F)C(F)(F)F [Example 10]
Response: > 108 mg/kg

Query: Give the observed ED50 of NC(c1cc(-c2ccc(F)cc2)c(-c2ccc(Br)cc2)[nH]1)(C(F)(F)F)C(F)(F)F [Example 6] for phenylquinone writhing in mice.
Response: > 108 mg/kg

Query: Report ED50 on phenylquinone writhing in mice for this entry: CN(C)c1ccc(-c2[nH]c(C(N)(C(F)(F)F)C(F)(F)F)cc2-c2ccc(F)cc2)cc1 [Example 9]
Response: > 108 mg/kg

Query: Jot down ED50 (phenylquinone writhing in mice) of NC(c1cc(-c2ccc(F)cc2)c(-c2ccc(F)cc2)[nH]1)(C(F)(F)F)C(F)(F)F [Example 1] .
Response: 27 mg/kg

Query: Provide ED50, tested on phenylquinone writhing in mice, for CNC(c1cc(-c2ccc(F)cc2)c(-c2ccc(F)cc2)[nH]1)(C(F)(F)F)C(F)(F)F [Example 5] .
Response: > 108 mg/kg

Query: Report ED50 from phenylquinone writhing in mice testing of Cn1c(C(N)(C(F)(F)F)C(F)(F)F)cc(-c2ccc(F)cc2)c1-c1ccc(F)cc1 [Example 3]
Response: > 108 mg/kg

Query: Answer with ED50 of NC(c1cc(-c2ccc(F)cc2)c(-c2cccnc2)[nH]1)(C(F)(F)F)C(F)(F)F [Example 12] measured for phenylquinone writhing in mice.
Response: > 108 mg/kg

Query: Enter ED50 (test system phenylquinone writhing in mice) for NC(c1cc(-c2ccccc2)c(-c2ccccc2)[nH]1)(C(F)(F)F)C(F)(F)F [Example 11]
Response: > 108 mg/kg

* * *

- System: adjuvant-induced arthritis in rats
- assay_method_text: Established Adjuvant-Induced Arthritis in Rats
- Assay type: in vivo, Lewis (Wistar) male rats
- condition_notes: rat, oral gavage once daily for 7 days (days 14-20); paw volume of uninjected left hind paw on day 21; ED50 % estimated by inspection; read-out: Adjuvant Arthritic ED 50
Measured log10(ED50) values are reported for all entries that follow.
// units: mg/kg (pre-log); metric: ED50; scale: log10

// worked examples, log10(ED50) included
{"smiles_string": "NC(c1cc(-c2ccc(F)cc2)c(-c2ccc(F)cc2)[nH]1)(C(F)(F)F)C(F)(F)F", "log10(ED50)": -0.35}
{"smiles_string": "COc1ccc(-c2cc(C(N)(C(F)(F)F)C(F)(F)F)[nH]c2-c2ccc(OC)cc2)cc1", "log10(ED50)": 0.52}
{"smiles_string": "NC(c1cc(-c2ccccc2)c(-c2ccccc2)[nH]1)(C(F)(F)F)C(F)(F)F", "log10(ED50)": 1.30}
{"smiles_string": "Cc1c(C(N)(C(F)(F)F)C(F)(F)F)[nH]c(-c2ccc(F)cc2)c1-c1ccc(F)cc1", "log10(ED50)": -0.11}

Let us move to another entry and its log10(ED50).
Query: Return the recorded log10(ED50) value; entry: `NC(c1cc(-c2ccc(F)cc2)c(-c2ccc(Br)cc2)[nH]1)(C(F)(F)F)C(F)(F)F`
Response: 0.53
